Target: KCNH2-3.1 (Kv11.1-3.1 containing potassium channel; hERG 3.1) (Homo sapiens, UniProt Q12809)
Sequence (Q12809 1-1063 isoform Q12809-7): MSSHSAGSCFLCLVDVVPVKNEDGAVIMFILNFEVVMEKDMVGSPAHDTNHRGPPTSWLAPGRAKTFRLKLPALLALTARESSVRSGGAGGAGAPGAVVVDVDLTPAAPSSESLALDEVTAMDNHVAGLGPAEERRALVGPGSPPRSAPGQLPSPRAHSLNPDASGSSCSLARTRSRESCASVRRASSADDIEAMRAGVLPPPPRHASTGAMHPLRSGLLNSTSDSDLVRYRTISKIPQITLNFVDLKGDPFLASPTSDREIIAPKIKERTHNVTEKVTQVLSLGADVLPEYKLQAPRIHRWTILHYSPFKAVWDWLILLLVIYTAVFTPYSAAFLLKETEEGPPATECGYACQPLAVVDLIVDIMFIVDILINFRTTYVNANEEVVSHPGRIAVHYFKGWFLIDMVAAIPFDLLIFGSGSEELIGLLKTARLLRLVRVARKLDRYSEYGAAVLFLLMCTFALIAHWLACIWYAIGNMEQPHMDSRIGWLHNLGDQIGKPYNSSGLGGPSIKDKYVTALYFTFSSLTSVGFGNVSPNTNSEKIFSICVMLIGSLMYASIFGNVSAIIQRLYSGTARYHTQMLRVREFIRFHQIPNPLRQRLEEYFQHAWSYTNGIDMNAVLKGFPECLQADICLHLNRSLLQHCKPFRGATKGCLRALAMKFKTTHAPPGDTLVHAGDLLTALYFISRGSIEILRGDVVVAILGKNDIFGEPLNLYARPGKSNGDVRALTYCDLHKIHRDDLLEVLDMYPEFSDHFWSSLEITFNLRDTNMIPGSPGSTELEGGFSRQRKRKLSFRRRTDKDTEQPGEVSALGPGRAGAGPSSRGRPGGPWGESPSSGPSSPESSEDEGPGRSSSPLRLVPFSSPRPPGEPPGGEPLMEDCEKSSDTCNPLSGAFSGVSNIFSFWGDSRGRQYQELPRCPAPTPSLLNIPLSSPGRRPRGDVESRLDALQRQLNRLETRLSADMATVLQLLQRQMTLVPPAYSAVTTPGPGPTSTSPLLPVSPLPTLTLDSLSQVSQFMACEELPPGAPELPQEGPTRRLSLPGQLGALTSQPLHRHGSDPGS
Assay: KCNH2-3.1 inhibition ion (thallium) flux assay, FluxOR
Details: U2OS cells transduced with hERG 3.1 Bacmam virus, 5 minutes compound incubation, read-out: Activity range (IC50)
Counter-ions that a name gives are not always drawn.
property-name: IC50

compound: O=C(CN1CCCCC1)Nc1ccc(N2CCCCCC2)nc1 [Example 25]
result-value: 500 to 2000 nM

compound: O=C(CN1CCCC(F)C1)Nc1ccc(N2CCCCCC2)cc1 (stereo not drawn) [Example 8]
result-value: 500 to 2000 nM

compound: O=C(CN1CCCCC1)Nc1ccc(N2CCCOCC2)cc1 [Example 1, hydrochloride]
result-value: 2000 to 10000 nM

input: Param item = O=C(CN1CCCC(c2cccc(Cl)c2)C1)Nc1ccc(N2CCCCCC2)cc1 (stereo not drawn) [Example 17] ; retrieve measured IC50.
output: < 500 nM

input: Param item = O=C(CN1CCCCC1C(F)(F)F)Nc1ccc(N2CCCCCC2)cc1 (stereo not drawn) [Example 9] ; retrieve measured IC50.
output: 500 to 2000 nM
